The next entries give measured IC50 for Acetylcholinesterase (Electrophorus electricus, UniProt O42275).

>  <chem_smiles>
O=C(CCCCCNc1c2c(nc3ccccc13)CCCC2)NCCCCCc1nc2ccccc2s1

>  <IC50, nM>
760

$$$$
>  <chem_smiles>
O=C(CCCCCNc1c2c(nc3ccccc13)CCCC2)Nc1ccc(-c2nc3ccccc3s2)cc1

>  <IC50, nM>
340

$$$$
>  <chem_smiles>
O=C(CCCCCNc1c2c(nc3ccccc13)CCCC2)NCc1ccc(-c2nc3ccccc3s2)cc1

>  <IC50, nM>
1840

$$$$
>  <chem_smiles>
O=C(CCCCCNc1c2c(nc3ccccc13)CCCC2)Nc1ccc(Cc2nc3ccccc3s2)cc1

>  <IC50, nM>
570

$$$$
>  <chem_smiles>
O=C(CCCCCNc1c2c(nc3ccccc13)CCCC2)NCCCc1nc2ccccc2s1

>  <IC50, nM>
960

$$$$
